Catalogue of pIC50 readings, one per entry.
target: JAK1 (Homo sapiens (Human)); experiment: JAK Caliper Enzyme Assay at 1 mM ATP, JAK1; type: biochemical
Sequence (P23458 875-1153): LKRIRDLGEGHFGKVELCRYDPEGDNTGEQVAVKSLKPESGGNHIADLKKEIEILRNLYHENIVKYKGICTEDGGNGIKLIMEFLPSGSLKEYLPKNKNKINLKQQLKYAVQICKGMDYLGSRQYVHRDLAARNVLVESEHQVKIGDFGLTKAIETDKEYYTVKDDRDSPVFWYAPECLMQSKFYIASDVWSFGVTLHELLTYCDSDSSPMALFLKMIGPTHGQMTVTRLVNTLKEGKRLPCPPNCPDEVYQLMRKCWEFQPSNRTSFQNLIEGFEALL
pIC50: −log10 of the molar value.
recorded_metric: pIC50

| compound | recorded_metric | rel | reported |
| --- | --- | --- | --- |
| Cc1ccc(-c2cc(-c3cnn(C4(CC#N)CN(S(C)(=O)=O)C4)n3)c3cccnc3c2)cn1 | pIC50 | < | 5.00 |
| C[C@]1(C#N)C[C@](CC#N)(n2ccc(-c3nc(-c4cc[nH]n4)cc4ncccc34)n2)C1 | pIC50 | = | 5.15 |
| CS(=O)(=O)N1CC(CC#N)(n2cc(-c3cc(-c4cc[nH]n4)cc4ncccc34)cn2)C1 | pIC50 | = | 6.10 |
| N#CC[C@]1(n2ncc(-c3cc(-c4cccnc4N)cc4ncccc34)n2)C[C@H](C#N)C1 | pIC50 | < | 5.00 |
| N#CC[C@]1(n2ncc(-c3cc(-c4cc(C(N)=O)ccn4)cc4ncccc34)n2)C[C@@H](C#N)C1 | pIC50 | < | 5.00 |
| N#CCC1(n2ncc(-c3cc(-c4cc(C(N)=O)ccn4)cc4ncccc34)n2)CC(C#N)C1 (stereo not shown) | pIC50 | = | 5.02 |
| Cn1cc(-c2cc3ncccc3c(-c3ccn([C@]4(CC#N)C[C@H](C#N)C4)n3)n2)c(N)n1 | pIC50 | = | 7.32 |

====

Molecular target: UniProt:O60674
Sequence (O60674 849-1124): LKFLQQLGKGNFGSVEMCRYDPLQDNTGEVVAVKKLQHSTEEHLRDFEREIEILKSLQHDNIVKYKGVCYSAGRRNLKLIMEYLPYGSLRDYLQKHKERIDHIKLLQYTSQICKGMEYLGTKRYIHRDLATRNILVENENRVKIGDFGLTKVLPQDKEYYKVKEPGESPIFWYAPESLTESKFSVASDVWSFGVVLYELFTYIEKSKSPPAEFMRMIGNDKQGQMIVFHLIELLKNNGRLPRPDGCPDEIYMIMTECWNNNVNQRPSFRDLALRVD
Assay: JAK Caliper Enzyme Assay at 1 mM ATP, JAK2
Assay type: biochemical
Description: Compounds of the invention were evaluated by in vitro methods to determine their respective ability to inhibit the JAK kinases (TYK2, JAK1, JAK2, JAK3). The human JAK inhibitory activity was determined by using a microfluidic assay to monitor phosphorylation of a synthetic peptide by the recombinant human kinase domain of each of the four members of the JAK family, JAK1, JAK2, JAK3 and TYK2. […]
pIC50: −log10 of the molar value.
Catalogue of pIC50 readings, one per entry.
recorded_metric: pIC50

| compound | test_target | recorded_metric | reported |
| --- | --- | --- | --- |
| Cn1cc(-c2cc(-c3cnn(C4(CC#N)CN(S(C)(=O)=O)C4)n3)c3cccnc3c2)cn1 | UniProt:O60674 | pIC50 | 6.61 |
| CS(=O)(=O)N1CC(CC#N)(n2ccc(-c3nc(-c4c[nH]c5ncccc45)cc4ncccc34)n2)C1 | UniProt:O60674 | pIC50 | 6.94 |
| N#CC[C@]1(n2ncc(-c3cc(-c4cnn(CCO)c4)cc4ncccc34)n2)C[C@H](C#N)C1 | UniProt:O60674 | pIC50 | 7.35 |
| Cc1cc(-c2cc(-c3cc[nH]n3)cc3ncccc23)nn1C1(CC#N)CN(S(C)(=O)=O)C1 | UniProt:O60674 | pIC50 | 5.53 |
| CS(=O)(=O)N1CC(CC#N)(n2ccc(-c3nc(-c4cccnc4N)cc4ncccc34)n2)C1 | UniProt:O60674 | pIC50 | 6.03 |
| Cc1cc(-c2cc3ncccc3c(-c3ccn([C@]4(CC#N)C[C@@H](C#N)C4)n3)n2)n[nH]1 | UniProt:O60674 | pIC50 | 7.04 |
| N#CCC1(n2ncc(-c3cc(-c4nc(CO)cs4)cc4ncccc34)n2)CC(C#N)C1 (stereo not drawn) | UniProt:O60674 | pIC50 | 7.03 |
| N#CC[C@]1(n2ccc(-c3nc(-c4cc(CO)no4)cc4ncccc34)n2)C[C@@H](C#N)C1 | UniProt:O60674 | pIC50 | 7.00 |
| N#CC[C@H]1C[C@@](CC#N)(n2ccc(-c3nc(-c4cn[nH]c4)cc4ncccc34)n2)C1 | UniProt:O60674 | pIC50 | 6.98 |
| Cn1cc(-c2cc3ncccc3c(-n3ccc(C4(CC#N)CN(CC(F)(F)F)C4)n3)n2)cn1 | UniProt:O60674 | pIC50 | 6.16 |
| N#CC[C@]1(n2ccc(-c3nc(-c4ccnc(CO)c4)cc4ncccc34)n2)C[C@@H](C#N)C1 | UniProt:O60674 | pIC50 | 7.34 |
| Cn1cc(-c2cc(-c3ccn(C4(CC#N)CN(S(C)(=O)=O)C4)n3)c3cccnc3c2)cn1 | UniProt:O60674 | pIC50 | 5.74 |
| CS(=O)(=O)N1CC(CC#N)(n2ccc(-c3nc(-c4cnn(C(CO)CCl)c4)cc4ncccc34)n2)C1 (stereo not drawn) | UniProt:O60674 | pIC50 | 7.20 |
| Cc1cc(-c2nc(-c3cn[nH]c3)cc3ncccc23)nn1C1(CC#N)CN(S(C)(=O)=O)C1 | UniProt:O60674 | pIC50 | 5.86 |
| Cn1cc(-c2cc(-c3cn(C4(CC#N)CN(S(C)(=O)=O)C4)nn3)c3cccnc3c2)cn1 | UniProt:O60674 | pIC50 | 6.82 |
